B1: CPEB3 Ribozyme (parent)
chain: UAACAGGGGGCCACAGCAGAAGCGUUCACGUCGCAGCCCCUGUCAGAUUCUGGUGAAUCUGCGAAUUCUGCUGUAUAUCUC

variants of: B1; test: self-cleavage, relative activity (ratio to wild type); higher = more cleavage; in vitro, sequencing
Assign 1 to entries whose self-cleavage meets or exceeds 0.4; assign 0 to the rest.

{"columns": ["MUTATION_DESCRIPTOR", "CLASS_ASSIGNMENT"],
 "data": [
  ["A15U A64U", 0],
  ["A75U U76C", 1],
  ["G10A A13U", 0],
  ["A3G U66A", 1],
  ["G9A U26C", 0],
  ["G46A G73A", 1]
]}
